Hey, just so you know, these numbers are from patent US20240299414A1.

measurementDescription: PK sub-study of IV iloprost infusion (plasma, LC-MS)
Format: in vivo, human
condition: human, plasma, 1.5 ng/kg; maximum tolerated dose level 1.50 ng/kg/min IV; n = 1; read-out: AUC0-inf, Geometric mean (geometric CV %)
readoutLabel: AUC(0-inf) (ng·h/mL)
Quick reminder: number only, in ng·h/mL, skip the unit.

QUERY: Note down AUC(0-inf) recorded for CC#CCC(C)[C@H](O)/C=C/[C@@H]1[C@H]2C/C(=C/CCCC(=O)O)C[C@H]2C[C@H]1O (stereo partly shown)
RESULT: 0.603

* * *

measurementDescription: PK sub-study of IV iloprost infusion (plasma, LC-MS)
Assay type: in vivo, human
condition: human, plasma; maximum tolerated dose level 1.00 ng/kg/min IV; n = 1; read-out: Vss, Mean (SD)
readoutLabel: Vd
Write the numeric value and follow it with the unit.

QUERY: Note down Vd recorded for CC#CCC(C)[C@H](O)/C=C/[C@@H]1[C@H]2C/C(=C/CCCC(=O)O)C[C@H]2C[C@H]1O (stereo partly shown)
RESULT: 62 L

* * *

measurementDescription: PK sub-study of IV iloprost infusion (plasma, LC-MS)
Assay type: in vivo, human
condition: human, plasma; maximum tolerated dose level 1.00 ng/kg/min IV; n = 2; read-out: AUC0-last, Geometric mean (geometric CV %)
readoutLabel: AUC(0-t) (ng·h/mL)
Quick reminder: number only, in ng·h/mL, skip the unit.

QUERY: Note down AUC(0-t) recorded for CC#CCC(C)[C@H](O)/C=C/[C@@H]1[C@H]2C/C(=C/CCCC(=O)O)C[C@H]2C[C@H]1O (stereo partly shown)
RESULT: 0.315

* * *

measurementDescription: PK sub-study of IV iloprost infusion (plasma, LC-MS)
Format: in vivo, human
condition: human, plasma; maximum tolerated dose level 2.00 ng/kg/min IV; n = 4; read-out: AUC0-last, Geometric mean (geometric CV %)
readoutLabel: AUC(0-t)
Write the numeric value and follow it with the unit.

QUERY: Note down AUC(0-t) recorded for CC#CCC(C)[C@H](O)/C=C/[C@@H]1[C@H]2C/C(=C/CCCC(=O)O)C[C@H]2C[C@H]1O (stereo partly shown) [Iloprost]
RESULT: 0.478 ng·h/mL

* * *

measurementDescription: PK sub-study of IV iloprost infusion (plasma, LC-MS)
Assay type: in vivo, human
condition: human, plasma, intravenous; range across the 4 dose levels; read-out: mean t½
Experimental: Eligible subjects were given the option to participate in a PK sub-study. Subjects who participated in the sub-study provided plasma samples for PK analysis. The samples were analyzed for iloprost concentrations using validated liquid chromatography mass spectrometry methods. […]
readoutLabel: half-life

QUERY: Note down half-life recorded for CC#CCC(C)[C@H](O)/C=C/[C@@H]1[C@H]2C/C(=C/CCCC(=O)O)C[C@H]2C[C@H]1O (stereo partly shown) [Iloprost]
RESULT: 22.9 to 28.3 min

* * *

measurementDescription: PK sub-study of IV iloprost infusion (plasma, LC-MS)
Format: in vivo, human
condition: human, plasma; maximum tolerated dose level 1.00 ng/kg/min IV; n = 1; read-out: AUC0-inf, Geometric mean (geometric CV %)
readoutLabel: AUC(0-inf) (ng·h/mL)
Quick reminder: number only, in ng·h/mL, skip the unit.

QUERY: Note down AUC(0-inf) recorded for CC#CCC(C)[C@H](O)/C=C/[C@@H]1[C@H]2C/C(=C/CCCC(=O)O)C[C@H]2C[C@H]1O (stereo partly shown) [Iloprost]
RESULT: 0.379

* * *

measurementDescription: PK sub-study of IV iloprost infusion (plasma, LC-MS)
Format: in vivo, human
condition: human, plasma; maximum tolerated dose level 2.00 ng/kg/min IV; n = 1; read-out: Vss, Mean (SD)
readoutLabel: Vd (L)
Quick reminder: number only, in L, skip the unit.

QUERY: Note down Vd recorded for CC#CCC(C)[C@H](O)/C=C/[C@@H]1[C@H]2C/C(=C/CCCC(=O)O)C[C@H]2C[C@H]1O (stereo partly shown) [Iloprost]
RESULT: 35.5

* * *

measurementDescription: PK sub-study of IV iloprost infusion (plasma, LC-MS)
Format: in vivo, human
condition: human, plasma, 1.5 ng/kg; maximum tolerated dose level 1.50 ng/kg/min IV; n = 2; read-out: AUC0-last, Geometric mean (geometric CV %)
readoutLabel: AUC(0-t)
Write the numeric value and follow it with the unit.

QUERY: Note down AUC(0-t) recorded for CC#CCC(C)[C@H](O)/C=C/[C@@H]1[C@H]2C/C(=C/CCCC(=O)O)C[C@H]2C[C@H]1O (stereo partly shown) [Iloprost]
RESULT: 0.203 ng·h/mL

* * *

measurementDescription: PK sub-study of IV iloprost infusion (plasma, LC-MS)
Assay type: in vivo, human
condition: human, plasma; maximum tolerated dose level 2.00 ng/kg/min IV; n = 1; read-out: AUC0-inf, Geometric mean (geometric CV %)
readoutLabel: AUC(0-inf) (ng·h/mL)
Quick reminder: number only, in ng·h/mL, skip the unit.

QUERY: Note down AUC(0-inf) recorded for CC#CCC(C)[C@H](O)/C=C/[C@@H]1[C@H]2C/C(=C/CCCC(=O)O)C[C@H]2C[C@H]1O (stereo partly shown)
RESULT: 0.701
